Test system: P388
Test: Cytotoxicity against mouse P388 cells
Format: functional, cell-based
metric: IC50

> print(dat)
                                   compound  metric  valuemeasured
1  C[C@H]1[C@H]2[C@@H](CCC3=C[C@@H](O)C[C@H](C)[C@]32C)O[C@@H]1O [ARMATIN A]    IC50        > 50 µM
2  C[C@@H]1C(=O)O[C@H]2CCC3=CC(=O)C[C@H](C)[C@@]3(C)[C@H]21    IC50        > 50 µM
3  C=C(CC[C@@H](C)[C@H]1CC[C@H]2[C@@H]3C[C@H]4O[C@]45C[C@@H](O)CC[C@]5(COC(C)=O)[C@H]3CC[C@]12C)C(C)C [ARMATINOL A]    IC50         6.1 µM

Kindly review the next compound as well.
Consider the compound C[C@@H]1C(=O)O[C@@H]2CCC3=C[C@@H](O)C[C@H](C)[C@@]3(C)[C@@H]12 [ARMATIN B] and give its recorded IC50.
> 50 µM
